Condition Details: 0.1N HCl, 1.0% DMSO, 24-hour incubation at ambient temperature, maximum theoretical 100 μM; first value of the cell
Quantity Kind: pH 2 solubility (μM)
Give just the number in μM; leave the unit off.

Given the molecule `CC(C)[C@H](N)C(=O)OCN(c1nn(CC(F)(F)F)c2c(-c3ccc(C#CC(C)(C)S(C)(=O)=O)nc3[C@H](Cc3cc(F)cc(F)c3)NC(=O)Cn3nc(C(F)(F)F)c4c3C(F)(F)[C@@H]3C[C@H]43)ccc(Cl)c12)S(C)(=O)=O` , what is its reported pH 2 solubility?
29

Given the molecule `CN(CC(=O)O)C(=O)N(c1nn(CC(F)(F)F)c2c(-c3ccc(C#CC(C)(C)S(C)(=O)=O)nc3[C@H](Cc3cc(F)cc(F)c3)NC(=O)Cn3nc(C(F)(F)F)c4c3C(F)(F)[C@@H]3C[C@H]43)ccc(Cl)c12)S(C)(=O)=O` , what is its reported pH 2 solubility?
1

Given the molecule `CC(C)(C#Cc1ccc(-c2ccc(Cl)c3c(N(C(=O)NCCOP(=O)(O)O)S(C)(=O)=O)nn(CC(F)(F)F)c23)c([C@H](Cc2cc(F)cc(F)c2)NC(=O)Cn2nc(C(F)(F)F)c3c2C(F)(F)[C@@H]2C[C@H]32)n1)S(C)(=O)=O` , what is its reported pH 2 solubility?
3

Given the molecule `C[C@@H](C(=O)O)N(CCOC(=O)N(c1nn(CC(F)(F)F)c2c(-c3ccc(C#CC(C)(C)S(C)(=O)=O)nc3[C@H](Cc3cc(F)cc(F)c3)NC(=O)Cn3nc(C(F)(F)F)c4c3C(F)(F)[C@@H]3C[C@H]43)ccc(Cl)c12)S(C)(=O)=O)C(=O)OCOP(=O)(O)O` , what is its reported pH 2 solubility?
1

Given the molecule `CC(C)(C#Cc1ccc(-c2ccc(Cl)c3c(N(C(=O)OC[C@H](CC(=O)O)NC(=O)C(=O)O)S(C)(=O)=O)nn(CC(F)(F)F)c23)c([C@H](Cc2cc(F)cc(F)c2)NC(=O)Cn2nc(C(F)(F)F)c3c2C(F)(F)[C@@H]2C[C@H]32)n1)S(C)(=O)=O` , what is its reported pH 2 solubility?
1

Given the molecule `CC(C)(C#Cc1ccc(-c2ccc(Cl)c3c(N(C(=O)OCCCC(=O)O)S(C)(=O)=O)nn(CC(F)(F)F)c23)c([C@H](Cc2cc(F)cc(F)c2)NC(=O)Cn2nc(C(F)(F)F)c3c2C(F)(F)[C@@H]2C[C@H]32)n1)S(C)(=O)=O` , what is its reported pH 2 solubility?
1

Given the molecule `CC(C)(C#Cc1ccc(-c2ccc(Cl)c3c(N(C(=O)O[C@H]4C[C@H](NC(=N)N)C4)S(C)(=O)=O)nn(CC(F)(F)F)c23)c([C@H](Cc2cc(F)cc(F)c2)NC(=O)Cn2nc(C(F)(F)F)c3c2C(F)(F)[C@@H]2C[C@H]32)n1)S(C)(=O)=O` , what is its reported pH 2 solubility?
5

Given the molecule `CC(C)(C#Cc1ccc(-c2ccc(Cl)c3c(N(C(=O)N[C@@H](CO)C(=O)O)S(C)(=O)=O)nn(CC(F)(F)F)c23)c([C@H](Cc2cc(F)cc(F)c2)NC(=O)Cn2nc(C(F)(F)F)c3c2C(F)(F)[C@@H]2C[C@H]32)n1)S(C)(=O)=O` , what is its reported pH 2 solubility?
1

---

Condition Details: 1×PBS buffer (pH 7.4), 1.0% DMSO, 24-hour incubation at ambient temperature, maximum theoretical 100 μM; second value of the cell
Threshold rule: pH 7 solubility greater than or equal to 50 μM is true (1); below that, false (0).

Item CN1CCN(CC(=O)N(c2nn(CC(F)(F)F)c3c(-c4ccc(C#CC(C)(C)S(C)(=O)=O)nc4[C@H](Cc4cc(F)cc(F)c4)NC(=O)Cn4nc(C(F)(F)F)c5c4C(F)(F)[C@@H]4C[C@H]54)ccc(Cl)c23)S(C)(=O)=O)CC1 [Compound 6] with pH 7 solubility of 50 μM or above?
false (0)

Item CC(C)(C#Cc1ccc(-c2ccc(Cl)c3c(N(C(=O)N[C@@](C)(CC(=O)O)C(=O)O)S(C)(=O)=O)nn(CC(F)(F)F)c23)c([C@H](Cc2cc(F)cc(F)c2)NC(=O)Cn2nc(C(F)(F)F)c3c2C(F)(F)[C@@H]2C[C@H]32)n1)S(C)(=O)=O [Compound 65] with pH 7 solubility of 50 μM or above?
true (1)

Item CC(C)(C#Cc1ccc(-c2ccc(Cl)c3c(N(C(=O)C(=O)O)S(C)(=O)=O)nn(CC(F)(F)F)c23)c([C@H](Cc2cc(F)cc(F)c2)NC(=O)Cn2nc(C(F)(F)F)c3c2C(F)(F)[C@@H]2C[C@H]32)n1)S(C)(=O)=O [Compound 16] with pH 7 solubility of 50 μM or above?
true (1)

Item CN(CCO)C(=O)N(c1nn(CC(F)(F)F)c2c(-c3ccc(C#CC(C)(C)S(C)(=O)=O)nc3[C@H](Cc3cc(F)cc(F)c3)NC(=O)Cn3nc(C(F)(F)F)c4c3C(F)(F)[C@@H]3C[C@H]43)ccc(Cl)c12)S(C)(=O)=O [Compound 50] with pH 7 solubility of 50 μM or above?
false (0)

Item CC(C)(C#Cc1ccc(-c2ccc(Cl)c3c(N(C(=O)OCCNC(=N)N)S(C)(=O)=O)nn(CC(F)(F)F)c23)c([C@H](Cc2cc(F)cc(F)c2)NC(=O)Cn2nc(C(F)(F)F)c3c2C(F)(F)[C@@H]2C[C@H]32)n1)S(C)(=O)=O [Compound 123] with pH 7 solubility of 50 μM or above?
true (1)

Item CC(C)(C#Cc1ccc(-c2ccc(Cl)c3c(N(COC(=O)CN)S(C)(=O)=O)nn(CC(F)(F)F)c23)c([C@H](Cc2cc(F)cc(F)c2)NC(=O)Cn2nc(C(F)(F)F)c3c2C(F)(F)[C@@H]2C[C@H]32)n1)S(C)(=O)=O [Compound 29] with pH 7 solubility of 50 μM or above?
false (0)

Item CC(C)(C#Cc1ccc(-c2ccc(Cl)c3c(N(C(=O)N[C@@H](CC(=O)O)C(=O)O)S(C)(=O)=O)nn(CC(F)(F)F)c23)c([C@H](Cc2cc(F)cc(F)c2)NC(=O)Cn2nc(C(F)(F)F)c3c2C(F)(F)[C@@H]2C[C@H]32)n1)S(C)(=O)=O [Compound 69] with pH 7 solubility of 50 μM or above?
true (1)

Item CC(C)(C#Cc1ccc(-c2ccc(Cl)c3c(N(C(=O)NCCNC(=O)C(=O)O)S(C)(=O)=O)nn(CC(F)(F)F)c23)c([C@H](Cc2cc(F)cc(F)c2)NC(=O)Cn2nc(C(F)(F)F)c3c2C(F)(F)[C@@H]2C[C@H]32)n1)S(C)(=O)=O [Compound 77] with pH 7 solubility of 50 μM or above?
false (0)

Item CC(C)(C#Cc1ccc(-c2ccc(Cl)c3c(N(C(=O)OCCOP(=O)(O)O)S(C)(=O)=O)nn(CC(F)(F)F)c23)c([C@H](Cc2cc(F)cc(F)c2)NC(=O)Cn2nc(C(F)(F)F)c3c2C(F)(F)[C@@H]2C[C@H]32)n1)S(C)(=O)=O [Compound 100] with pH 7 solubility of 50 μM or above?
true (1)

Item CC(C)(C#Cc1ccc(-c2ccc(Cl)c3c(N(C(=O)NCCN4CCNCC4)S(C)(=O)=O)nn(CC(F)(F)F)c23)c([C@H](Cc2cc(F)cc(F)c2)NC(=O)Cn2nc(C(F)(F)F)c3c2C(F)(F)[C@@H]2C[C@H]32)n1)S(C)(=O)=O [Compound 73] with pH 7 solubility of 50 μM or above?
false (0)

Item CC(C)(C#Cc1ccc(-c2ccc(Cl)c3c(N(C(=O)OCCCP(=O)(O)O)S(C)(=O)=O)nn(CC(F)(F)F)c23)c([C@H](Cc2cc(F)cc(F)c2)NC(=O)Cn2nc(C(F)(F)F)c3c2C(F)(F)[C@@H]2C[C@H]32)n1)S(C)(=O)=O [Compound 112] with pH 7 solubility of 50 μM or above?
true (1)

Item CC(C)(C#Cc1ccc(-c2ccc(Cl)c3c(N(C(=O)OCOP(=O)(O)O)S(C)(=O)=O)nn(CC(F)(F)F)c23)c([C@H](Cc2cc(F)cc(F)c2)NC(=O)Cn2nc(C(F)(F)F)c3c2C(F)(F)[C@@H]2C[C@H]32)n1)S(C)(=O)=O [Compound 90] with pH 7 solubility of 50 μM or above?
false (0)

Item CC(C)(C#Cc1ccc(-c2ccc(Cl)c3c(N(C(=O)OCCN4CCOCC4)S(C)(=O)=O)nn(CC(F)(F)F)c23)c([C@H](Cc2cc(F)cc(F)c2)NC(=O)Cn2nc(C(F)(F)F)c3c2C(F)(F)[C@@H]2C[C@H]32)n1)S(C)(=O)=O [Compound 114] with pH 7 solubility of 50 μM or above?
false (0)
